Can you tell me pIC50 for the items I'm about to list?
# MEASURED_ON: human recombinant, purified wild type His-B-Raf protein kinase (Homo sapiens)
# Sequence (P15056 whole entry): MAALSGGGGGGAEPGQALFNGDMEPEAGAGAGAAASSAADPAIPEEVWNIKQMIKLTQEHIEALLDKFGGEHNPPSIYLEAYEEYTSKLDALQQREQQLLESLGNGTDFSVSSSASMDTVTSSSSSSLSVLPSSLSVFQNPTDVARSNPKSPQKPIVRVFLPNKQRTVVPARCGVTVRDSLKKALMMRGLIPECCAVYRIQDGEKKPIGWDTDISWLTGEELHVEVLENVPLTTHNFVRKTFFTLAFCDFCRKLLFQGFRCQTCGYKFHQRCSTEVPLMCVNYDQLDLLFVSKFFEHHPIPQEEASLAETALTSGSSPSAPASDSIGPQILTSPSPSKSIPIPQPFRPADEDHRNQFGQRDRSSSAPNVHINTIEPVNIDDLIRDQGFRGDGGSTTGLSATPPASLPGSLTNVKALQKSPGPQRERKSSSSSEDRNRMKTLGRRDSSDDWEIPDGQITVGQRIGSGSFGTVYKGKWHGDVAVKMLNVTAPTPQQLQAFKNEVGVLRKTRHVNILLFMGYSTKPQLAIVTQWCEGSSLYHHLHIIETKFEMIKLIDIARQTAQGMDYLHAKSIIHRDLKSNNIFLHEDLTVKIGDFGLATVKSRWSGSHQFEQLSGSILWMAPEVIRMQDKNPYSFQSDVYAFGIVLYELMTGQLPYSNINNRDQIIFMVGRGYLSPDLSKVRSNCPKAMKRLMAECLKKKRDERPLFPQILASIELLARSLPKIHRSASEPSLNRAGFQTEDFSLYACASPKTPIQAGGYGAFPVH
# TEST_SUMMARY: B-Raf In Vitro ELISA Assay
# CONDITIONS: phosphorylation of MEK1; 2.5 nM B-Raf, 0.15 μM MEK1, 10 μM ATP; 1 hour preincubation at 25° C.
# Description: B-Raf In Vitro ELISA Assay Activity of human recombinant, purified wild type His-B-Raf protein kinase was determined in vitro using an enzyme-linked immunosorbent assay (ELISA) assay format, which measures phosphorylation of the B-Raf substrate, human recombinant, purified His-derived (detagged) MEK1. […] Blue fluorescent product was detected at excitation 325 and emission 420 using a TECAN Ultra plate reader. Data was graphed and IC50s calculated using Excel Fit (Microsoft).
Note: pIC50 values are expressed as the negative base-10 logarithm of concentration in M.

Value of measured pIC50 for the entry Cc1ccc(NC(=O)c2cccc(C(F)(F)F)c2)cc1-n1c(C)nc2ccc(N3CCOCC3)cc2c1=O : 5.49

Value of measured pIC50 for the entry Cc1ccc(NC(=O)c2cccc(C(F)(F)F)c2)cc1-n1cnc2ccc(OCCN3CCOCC3)cc2c1=O : 6.29

Value of measured pIC50 for the entry Cc1ccc(NC(=O)c2cccc(C(F)(F)F)c2)cc1-n1cnc2ccc(NCCCN(C)C)cc2c1=O : 6.27
